biological target: human CD73 (Homo sapiens); test: Inhibition of Ecto-5′-nucleotidase (CD73) activity in CHO-CD73 cells, phosphate release from AMP; settings: CHO-K1 cells stably transfected with human CD73; 25 μM AMP; 50 minutes, 37° C.; read-out: Potency: CD73 IC50
A collection of compounds and their measured IC50

{"Compound": "Cc1cccc(-n2nccc2-c2cc(F)c3nnn(-c4ccc5[nH]c(=O)[nH]c5c4)c3c2)c1 [Example 216]", "IC50": "> 1 µM"}
{"Compound": "N#Cc1ccc(Cn2c(-c3cc(F)c4nnn(-c5ccc6[nH]c(=O)[nH]c6c5)c4c3)c[nH]c2=O)cc1 [Example 333]", "IC50": "0.1 to 1 µM"}
{"Compound": "CC(c1ccc(C#N)cc1F)n1nccc1-c1cc2c(cc1F)nnn2-c1ccc2cn[nH]c2c1 (stereo not drawn) [Example 412]", "IC50": "0.1 to 1 µM"}
{"Compound": "N#Cc1ccc(Cn2nccc2-c2ccc3nnn(-c4ccc5[nH]c(=O)[nH]c5c4)c3c2)c(F)c1 [Example 240]", "IC50": "0.1 to 1 µM"}

Request: What value of IC50 has been recorded for this entry: CC(c1ccc(Cl)c[n+]1[O-])n1c(-c2cc3c(cc2F)nnn3-c2ccc3cn[nH]c3c2)cc[n+]1[O-] (stereo not drawn) [Example 387]
Result: 0.1 to 1 µM

====

biological target: human CD73 (Homo sapiens, UniProt P21589); assay: Inhibition of Ecto-5′-nucleotidase (CD73) activity in CHO-CD73 cells, phosphate release from AMP; details: CHO-K1 cells stably transfected with human CD73; 25 μM AMP; 50 minutes, 37° C.; read-out: Potency: CD73 IC50
A collection of compounds and their measured IC50

Request: Hi! What's the reported IC50 for Cc1nn(-c2ccc3cn[nH]c3c2)c2cc(-c3ccnn3Cc3ccc(C#N)cc3)c[n+]([O-])c12 [Example 360] on human CD73 (Homo sapiens, UniProt P21589)?
Result: 100 to 1000 nM

Request: Hi! What's the reported IC50 for CNc1nn(-c2ccc3cn[nH]c3c2)c2cc(-c3ccnn3Cc3ccc(C#N)cc3)cnc12 [Example 423] on human CD73 (Homo sapiens, UniProt P21589)?
Result: > 1000 nM

Request: Hi! What's the reported IC50 for CN(C)S(=O)(=O)Nc1nn(-c2ccc3cn[nH]c3c2)c2cc(-c3ccnn3Cc3ccc(C#N)cc3)cnc12 [Example 424] on human CD73 (Homo sapiens, UniProt P21589)?
Result: > 1000 nM

Request: Hi! What's the reported IC50 for N#Cc1ccc(Cn2nccc2-c2cnc3c(N)nn(-c4cc5[nH]ncc5cc4F)c3c2)cc1 [Example 364] on human CD73 (Homo sapiens, UniProt P21589)?
Result: < 100 nM

Request: Hi! What's the reported IC50 for N#Cc1ccc(Cn2nccc2-c2cc(F)c3c(N)nn(-c4ccc5[nH]c(=O)[nH]c5c4)c3c2)cc1 [Example 175] on human CD73 (Homo sapiens, UniProt P21589)?
Result: > 1000 nM

Request: Hi! What's the reported IC50 for Cc1nn(-c2ccc3cn[nH]c3c2)c2cc(-c3ccnn3Cc3ccc(C#N)cc3)[nH]c(=O)c12 [Example 358] on human CD73 (Homo sapiens, UniProt P21589)?
Result: 100 to 1000 nM

Request: Hi! What's the reported IC50 for Cn1ccc(Cn2nccc2-c2cc(F)c3nnn(-c4ccc5[nH]c(=O)[nH]c5c4)c3c2)n1 [Example 266] on human CD73 (Homo sapiens, UniProt P21589)?
Result: > 1000 nM

Request: Hi! What's the reported IC50 for Cc1cc(C#N)cnc1Cn1nccc1-c1cc(F)c2nnn(-c3ccc4[nH]c(=O)[nH]c4c3)c2c1 [Example 280] on human CD73 (Homo sapiens, UniProt P21589)?
Result: > 1000 nM

Request: Hi! What's the reported IC50 for Cc1cc(C#N)ccc1Cn1nccc1-c1cc(Cl)c2nnn(-c3ccc4[nH]c(=O)[nH]c4c3)c2c1 [Example 270] on human CD73 (Homo sapiens, UniProt P21589)?
Result: < 100 nM

Request: Hi! What's the reported IC50 for N#Cc1cnc(Cn2nccc2-c2cc(Cl)c3nnn(-c4ccc5[nH]c(=O)[nH]c5c4)c3c2)c(Cl)c1 [Example 269] on human CD73 (Homo sapiens, UniProt P21589)?
Result: 100 to 1000 nM

Request: Hi! What's the reported IC50 for N#Cc1ccccc1Cn1nccc1-c1cc(F)c2nnn(-c3ccc4[nH]c(=O)[nH]c4c3)c2c1 [Example 214] on human CD73 (Homo sapiens, UniProt P21589)?
Result: > 1000 nM

Request: Hi! What's the reported IC50 for COc1ccc(Cn2nccc2-c2cc3c(cn2)nnn3-c2ccc3[nH]c(=O)[nH]c3c2)c(F)c1 [Example 247] on human CD73 (Homo sapiens, UniProt P21589)?
Result: 100 to 1000 nM

Request: Hi! What's the reported IC50 for N#Cc1ccc(Cn2nccc2-c2cc(F)c3nnn(-c4ccc5cn[nH]c5c4)c3c2)nc1 [Example 107] on human CD73 (Homo sapiens, UniProt P21589)?
Result: 100 to 1000 nM

====

molecular target: human CD73 (Homo sapiens, UniProt P21589); assay: Inhibition of Ecto-5′-nucleotidase (CD73) activity in CHO-CD73 cells, phosphate release from AMP; settings: CHO-K1 cells stably transfected with human CD73; 25 μM AMP; 50 minutes, 37° C.; read-out: Potency: CD73 IC50
pIC50: −log10 of the molar value.
Experimental Endpoint: pIC50

Below: 4 compounds and their reported pIC50.
{"Compound": "N#Cc1ccc(Cn2nccc2-c2cc(F)c3nnn(-c4ccc5[nH]c(=O)[nH]c5c4)c3c2)c(C(=O)O)c1", "pIC50": "6.00 to 7.00"}
{"Compound": "CC(c1ccccn1)n1nccc1-c1cc(Cl)c2nnn(-c3ccc4cn[nH]c4c3)c2c1 (stereo not shown)", "pIC50": "< 6.00"}
{"Compound": "N#Cc1ccc(Cn2nccc2-c2cc(F)c3nnn(-c4ccc5[nH]c(=O)[nH]c5c4)c3c2)c(C(F)(F)F)c1", "pIC50": "6.00 to 7.00"}
{"Compound": "Fc1cc(-c2ccnn2Cc2ccc(C(F)F)cc2)cc2c1nnn2-c1ccc2cn[nH]c2c1", "pIC50": "6.00 to 7.00"}

Request: What value of pIC50 has been recorded for this entry: N#Cc1ccc(Cn2nccc2-c2cnc3c(c2)c(-c2ccc4[nH]c(=O)[nH]c4c2)nn3CCO)cc1
Result: < 6.00

Request: What value of pIC50 has been recorded for this entry: Cn1nc(-c2ccc3[nH]c(=O)[nH]c3c2)c2cc(-c3ccnn3Cc3ccc(C#N)cc3)ncc21
Result: 6.00 to 7.00

Request: What value of pIC50 has been recorded for this entry: N#Cc1ccc(Cn2nccc2-c2cc(F)c3nnn(-c4ccc5[nH]c(=O)[nH]c5c4)c3c2)c(CN2CC(C(=O)O)C2)c1
Result: 6.00 to 7.00

Request: What value of pIC50 has been recorded for this entry: Nc1cccc(-n2nnc3c(Cl)cc(-c4ccnn4Cc4ccc(Cl)cc4Cl)cc32)c1
Result: < 6.00

Request: What value of pIC50 has been recorded for this entry: Fc1cc(-c2ccnn2Cc2ccccc2C(F)(F)F)cc2c1nnn2-c1ccc2cn[nH]c2c1
Result: 6.00 to 7.00

Request: What value of pIC50 has been recorded for this entry: N#Cc1ccc(Cn2nccc2-c2cc(C(F)(F)F)c3nnn(-c4ccc5cn[nH]c5c4)c3c2)cc1
Result: 6.00 to 7.00

Request: What value of pIC50 has been recorded for this entry: N#Cc1ccc(Cn2nccc2-c2cc(F)c3nnn(-c4ccc5[nH]c(=O)[nH]c5c4)c3c2)c(S(N)(=O)=O)c1
Result: 6.00 to 7.00

Request: What value of pIC50 has been recorded for this entry: N#Cc1ccc(Cn2ncc(F)c2-c2cc(F)c3nnn(-c4ccc5[nH]c(=O)[nH]c5c4)c3c2)cc1
Result: 6.00 to 7.00

====

A collection of compounds and their measured pIC50
Target: human CD73 (Homo sapiens, UniProt P21589)
Sequence (P21589 27-549): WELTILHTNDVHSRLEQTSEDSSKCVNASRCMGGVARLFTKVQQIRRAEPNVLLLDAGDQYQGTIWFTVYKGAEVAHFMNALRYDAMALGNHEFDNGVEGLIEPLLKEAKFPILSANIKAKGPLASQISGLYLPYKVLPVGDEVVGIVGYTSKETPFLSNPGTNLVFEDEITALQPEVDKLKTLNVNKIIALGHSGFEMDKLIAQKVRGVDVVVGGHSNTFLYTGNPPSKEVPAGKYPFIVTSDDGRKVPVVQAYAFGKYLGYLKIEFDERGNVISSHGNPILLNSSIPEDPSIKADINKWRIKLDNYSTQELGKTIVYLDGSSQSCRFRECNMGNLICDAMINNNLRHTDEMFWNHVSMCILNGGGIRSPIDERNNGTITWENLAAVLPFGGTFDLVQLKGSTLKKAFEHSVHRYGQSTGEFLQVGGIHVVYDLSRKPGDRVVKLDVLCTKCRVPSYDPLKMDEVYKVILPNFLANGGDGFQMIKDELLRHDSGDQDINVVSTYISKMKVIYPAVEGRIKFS
Assay: Inhibition of Ecto-5′-nucleotidase (CD73) activity in CHO-CD73 cells, phosphate release from AMP
Settings: CHO-K1 cells stably transfected with human CD73; 25 μM AMP; 50 minutes, 37° C.; read-out: Potency: CD73 IC50
pIC50: −log10 of the molar value.

Below: 3 compounds and their reported pIC50.
{"Compound": "N#Cc1ccc(Cn2cccc2-c2cc(F)c3nnn(-c4ccc5[nH]c(=O)[nH]c5c4)c3c2)cc1", "Experimental Endpoint": "pIC50", "Experimental Result": "6.00 to 7.00"}
{"Compound": "N#Cc1ccc(Cn2nccc2-c2cn3c(-c4ccc5[nH]c(=O)[nH]c5c4)cnc3cn2)cc1", "Experimental Endpoint": "pIC50", "Experimental Result": "< 6.00"}
{"Compound": "CC(NC(=O)Cn1nccc1-c1cc(Cl)c2nnn(-c3ccc4cn[nH]c4c3)c2c1)c1ccccc1 (stereo not shown)", "Experimental Endpoint": "pIC50", "Experimental Result": "< 6.00"}

Request: Hi! What's the reported pIC50 for Cc1cc(Cl)cnc1Cn1nccc1-c1cc(Cl)c2nnn(-c3ccc4[nH]c(=O)[nH]c4c3)c2c1 on human CD73 (Homo sapiens, UniProt P21589)?
Result: 6.00 to 7.00
